# Test system: Klebsiella pneumoniae
# EXPERIMENTAL CONTEXT: Concentration 32 ug.mL-1; ASSAY_TEST Inhibition of Bacterial Growth; detection method Absorption (OD600); MEDIA CAMHB; plate type 384well; NBS; CORNING #3640; time 18 hr
# Description: Antibacterial activity against Klebsiella pneumoniae MDR ATCC 70063 (CO-ADD:GN_003); MIC in CAMBH media using NBS plates, by OD(600)
Potency and affinity values are given separately.
REPORTED ENDPOINT: Inhibition
Mention the unit after the number when you answer.

Known Inhibition results, listed for orientation:
COc1cccc(-c2c(C#N)c(=O)oc3c2ccc2ccccc23)c1 | 2.22%
Cc1nc(NCc2ccccc2)c2cnn(-c3ccccc3)c2n1 | 15.01%
CC1(C)OC(=O)C(=Cc2ccc([N+](=O)[O-])cc2)C(=O)O1 | 18.71%
N#Cc1cc(C#N)c(NCCO)nc1N | 12.5%

Quick one: Inhibition of `C/C=C(/C#N)C(=O)OC` ?
5.34%

Quick one: Inhibition of `N#Cc1cc(C#N)c(N2CCC(Cc3ccccc3)CC2)nc1N` ?
-9.32%

* * *

# System: Klebsiella pneumoniae
# EXPERIMENTAL CONTEXT: Concentration 32 ug.mL-1; ASSAY_TEST Inhibition of Bacterial Growth; detection method Absorption (OD600); MEDIA CAMHB; plate type 384well; NBS; CORNING #3640; time 18 hr
Results with a measured potency or affinity are listed apart.
Recorded Inhibition by entry
Respond with the bare value in %.

Known Inhibition results, listed for orientation:
Cl.ClCCCN1CCCC1 | 2.47
N#CCC(=C(C#N)C#N)c1ccccc1 | 11.23
Cl.NC1(C(=O)O)CC1c1ccccc1 (centres undefined) | 9.92

Quick one: Inhibition of `COc1nc2nc3c(c(N)c2cc1C#N)CCCC3.Cl` ?
10.99

Quick one: Inhibition of `CC(=O)Oc1cccc(C=C2N=C(c3ccccc3)OC2=O)c1` ?
1.18

Quick one: Inhibition of CC1Cc2c(nc3c(c2N)CCCC3)NC1=O (centres undefined) ?
17.01

Quick one: Inhibition of `N#Cc1c(N)nc(N2CCCCC2)c(C#N)c1-c1ccccc1` ?
2.6

Quick one: Inhibition of `Cn1c(CO)cc2cc(OCCCC3CCN(Cc4ccccc4)CC3)ccc21` ?
-2.86

Quick one: Inhibition of `CC(C)C(=O)N/N=C/c1c[nH]c2ccccc12` ?
19.59

Quick one: Inhibition of `CC(=O)Oc1ccc(C=C2N=C(c3ccccc3)OC2=O)cc1` ?
-12.75

Quick one: Inhibition of CSC1=NC2(CC2c2ccccc2)C(=O)N1C (centres undefined) ?
-3.2

Quick one: Inhibition of `CN1C/C(=C\Cl)n2c1c(C#N)c(-c1ccccc1)c(C#N)c2=O` ?
4.05

Quick one: Inhibition of `CCOc1nc(N)c(C#N)cc1C#N` ?
12.55

Quick one: Inhibition of `N#Cc1cc2c(N)c3c(nc2nc1N1CCCCC1)CCCC3` ?
18.01

Quick one: Inhibition of `CC(C)(C)OC(=O)Nc1ncccc1Br` ?
19.74

Quick one: Inhibition of `CC(=O)/C=C/C1CCN(Cc2ccccc2)CC1` ?
7.64

Quick one: Inhibition of `COC(=O)/C(=C/c1ccc(O)cc1)NC(=O)c1ccccc1` ?
-14.62

Quick one: Inhibition of `C#CCNc1nc(Cl)c(C#N)c(-c2ccccc2)c1C#N` ?
-23.73

Quick one: Inhibition of `CN1C/C(=C\Br)n2c1c(C#N)cc(C#N)c2=O` ?
4.89

Quick one: Inhibition of `N#Cc1c(Cl)nc(Sc2ccccc2)c(C#N)c1-c1ccccc1` ?
-3.62

Quick one: Inhibition of `CC(=O)Oc1ccc(C=C2N=C(C)OC2=O)cc1` ?
7.96

Quick one: Inhibition of Nc1n[nH]c2c1C(c1ccccc1)CC(=O)N2 (centres undefined) ?
23.2

Quick one: Inhibition of `C#CCN(C)c1nc(OC)c(C#N)c(-c2ccccc2)c1C#N` ?
15.23

Quick one: Inhibition of `Cn1c(C(=O)NCc2ccccc2)cc2cc(OCCCC3CCN(Cc4ccccc4)CC3)ccc21` ?
8.4

The values you see were collected from ChEMBL document CHEMBL4513135.
